Attribution: patent US20250171459A1

ASSAY_TARGET: APOL1 (Homo sapiens, UniProt O14791)
TEST_DESCRIPTION: MultiTox-Fluor Multiplex Cytotoxicity Assay in tet-inducible APOL1 T-REx-HEK293 cells (cell rescue, ratio of dead to live cells)
RUN_PARAMETERS: tet-inducible transgenic APOL1 T-REx-HEK293 cell lines, 50 ng/mL tet, 24 hours; read-out: IP50 (i.e., IC50 for cell proliferation)
OUTCOME_MEASURE: IC50

- COMPOUND: "C[C@H]1C[C@@]2(CCN1Cc1cn(CC(C)(CO)CO)nn1)OCCc1cc(CC(F)F)sc12 [Compound 546]"
  IC50: "< 100 nM"
- COMPOUND: "CCc1cc2c(s1)CCO[C@@]21CCN(Cc2cn(CC(O)CN3CCCC3=O)nn2)[C@@H](C)C1 (stereo partly shown) [Compound 99]"
  IC50: "< 100 nM"
- COMPOUND: "C[C@H]1C[C@@]2(CCN1Cc1cnn(CC3(O)CCC3)c1)OCCc1c2sc(C(F)(F)F)c1CO [Compound 948]"
  IC50: "< 100 nM"

# ---- query compound ----
Input line: What is its IC50 for APOL1 (Homo sapiens, UniProt O14791)? Entry: Cc1cc2c(s1)CCO[C@]21CCN(Cc2cnn(CCS(C)(=O)=O)c2)[C@@H](C)C1 [Compound 516]
Output line: < 100 nM

* * *

ASSAY_TARGET: APOL1 (Homo sapiens, UniProt O14791)
Sequence (O14791 1-398 S342G/I384M): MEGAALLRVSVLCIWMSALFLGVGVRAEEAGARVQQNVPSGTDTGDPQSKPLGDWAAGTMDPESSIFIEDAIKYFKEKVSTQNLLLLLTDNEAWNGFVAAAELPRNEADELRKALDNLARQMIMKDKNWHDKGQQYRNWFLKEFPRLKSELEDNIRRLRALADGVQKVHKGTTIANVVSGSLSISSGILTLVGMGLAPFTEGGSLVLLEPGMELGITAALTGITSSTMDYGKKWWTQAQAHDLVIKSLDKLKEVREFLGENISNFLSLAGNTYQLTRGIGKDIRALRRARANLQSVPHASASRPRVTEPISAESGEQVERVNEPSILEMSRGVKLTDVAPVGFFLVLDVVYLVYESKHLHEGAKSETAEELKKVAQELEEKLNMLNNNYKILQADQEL
TEST_DESCRIPTION: MultiTox-Fluor Multiplex Cytotoxicity Assay in tet-inducible APOL1 T-REx-HEK293 cells (cell rescue, ratio of dead to live cells)
RUN_PARAMETERS: tet-inducible transgenic APOL1 T-REx-HEK293 cell lines, 50 ng/mL tet, 24 hours; read-out: IP50 (i.e., IC50 for cell proliferation)
pIC50: −log10 of the molar value.
OUTCOME_MEASURE: pIC50

Some entries whose results are on file:
- MOLECULE: "C[C@H]1C[C@@]2(CCN1Cc1cnn(CCS(C)(=O)=O)c1)OCC(O)c1cc(Cl)sc12 (stereo partly drawn) [Compound 767]"
  OUTCOME_MEASURE: "pIC50"
  OBSERVED: "> 7.00"
- MOLECULE: "C[C@H]1C[C@@]2(CCN1Cc1cnn(CC(O)CC(F)(F)F)c1)OCCc1c2sc(C(F)(F)F)c1CO (stereo partly drawn) [Compound 892]"
  OUTCOME_MEASURE: "pIC50"
  OBSERVED: "> 7.00"
- MOLECULE: "C[C@H]1C[C@@]2(CCN1Cc1cnn(C)c1)OCC(O)c1cc(Cl)sc12 (single isomer, unassigned) [Compound 820]"
  OUTCOME_MEASURE: "pIC50"
  OBSERVED: "> 7.00"

For the 8 molecules below, give their pIC50 values.
1. CCc1cc2c(s1)CCO[C@@]21CCN(CC2CN(C(=O)CC3CS(=O)(=O)C3)C2)[C@@H](C)C1 [Compound 450]
2. CCc1cc2c(s1)CCO[C@@]21CCN(CC2CC(NC(=O)CCCCCOCCOCCOCCOCCCCCCCl)C2)[C@@H](C)C1 (stereo partly drawn) [Compound 385]
3. CCc1cc2c(s1)CCOC21CCN(Cc2ccc(N[C@H]3CC[C@H](O)CC3)nc2)CC1 [Compound 1067]
4. CCc1cc2c(s1)CCO[C@@]21CCN(Cc2cn(CC3(OCCO)CCOCC3)nn2)[C@@H](C)C1 [Compound 87]
5. C[C@H]1C[C@@]2(CCN1Cc1cn(CC(O)C(C)(C)O)nn1)OCCc1c2sc(C(F)(F)F)c1CO (stereo partly drawn) [Compound 1005]
6. CC(=O)OC1CO[C@@]2(CCN(Cc3cnn(CCS(C)(=O)=O)c3)[C@@H](C)C2)c2sc(Cl)cc21 (stereo partly drawn) [Compound 847]
7. COc1cccc(CN2CC[C@]3(C[C@@H]2C)OC[C@H](O)c2cc(Cl)sc23)n1 [Compound 782]
8. CCc1cc2c(s1)CCO[C@@]21CCN(Cc2cn(CC3CCCCS3(=O)=O)nn2)[C@@H](C)C1 (stereo partly drawn) [Compound 158]

Output line:
6.30 to 7.00
6.30 to 7.00
> 7.00
6.30 to 7.00
> 7.00
> 7.00
6.00 to 6.30
> 7.00
